biological target: Cyclin-dependent kinase 1/cyclin B (Homo sapiens, UniProt P06493); assay: Inhibition of CDK1/cyclin B
REPORTED METRIC: IC50
The reply must contain the numeric value and, after it, the unit.

Using the record for Oc1ccc2ccc3[nH]c4c(-c5ccccc5)cccc4c3c2c1 , report its IC50.
95 µM

###

test system: SKUT-1A; test: Inhibition of Rb negative Skut 1A cell proliferation; assay type: functional, cell-based; conditions: Homo sapiens
REPORTED METRIC: pIC50
In textbook form, pIC50 equals minus log to base ten of the concentration in mol/L.

- MOL SMILES: "Nc1cccc(-c2cccc3c2[nH]c2ccc4ccc(O)cc4c23)c1"
  pIC50: 4.94

Find pIC50 (SKUT-1A) for the entry Oc1ccc(-c2cccc3c2[nH]c2ccc4ccc(O)cc4c23)cc1
5.25

Okay, and Oc1ccc2ccc3[nH]c4c(-c5ccc(Cl)cc5)cccc4c3c2c1 ?
4.44

// next record Oc1ccc2ccc3[nH]c4c(-c5ccccc5)cccc4c3c2c1
4.97

###

tested on: Skut1B; experiment: Inhibition of Rb positive Skut 1B cell proliferation; assay type: functional, cell-based; details: Homo sapiens
REPORTED METRIC: IC50 (µM)
Please give a number only; it is taken to be in µM.

Worked examples, 3 molecules total:
- MOL SMILES: "Oc1ccc(-c2cccc3c2[nH]c2ccc4ccc(O)cc4c23)cc1"
  SYSTEM NAME: "Skut1B"
  UNIT SYMBOL: "µM"
  IC50: 2.3
- MOL SMILES: "Oc1ccc2ccc3[nH]c4c(-c5ccc(Cl)cc5)cccc4c3c2c1"
  SYSTEM NAME: "Skut1B"
  UNIT SYMBOL: "µM"
  IC50: 10.2
- MOL SMILES: "Oc1ccc2ccc3[nH]c4c(-c5ccccc5)cccc4c3c2c1"
  SYSTEM NAME: "Skut1B"
  UNIT SYMBOL: "µM"
  IC50: 2.8

Turning now to a further record.
// IC50 lookup, key: Nc1cccc(-c2cccc3c2[nH]c2ccc4ccc(O)cc4c23)c1
4.1

###

target: Cyclin-dependent kinase 4/cyclin D1 (Homo sapiens, UniProt P11802); assay: Inhibition of Cyclin dependent kinase CDK4/cyclin D1; format: protein-complex assay
Sequence (P11802 whole entry): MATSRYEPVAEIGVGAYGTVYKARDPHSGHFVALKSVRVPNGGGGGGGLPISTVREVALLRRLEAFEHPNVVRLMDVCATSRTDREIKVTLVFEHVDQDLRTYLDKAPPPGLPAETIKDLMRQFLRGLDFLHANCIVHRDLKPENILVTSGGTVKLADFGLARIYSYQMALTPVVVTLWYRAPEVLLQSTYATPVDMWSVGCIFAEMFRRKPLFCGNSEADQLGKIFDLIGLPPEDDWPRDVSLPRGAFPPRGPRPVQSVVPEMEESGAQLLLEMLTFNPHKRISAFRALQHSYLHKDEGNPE
Sequence (P24385 whole entry, further chain): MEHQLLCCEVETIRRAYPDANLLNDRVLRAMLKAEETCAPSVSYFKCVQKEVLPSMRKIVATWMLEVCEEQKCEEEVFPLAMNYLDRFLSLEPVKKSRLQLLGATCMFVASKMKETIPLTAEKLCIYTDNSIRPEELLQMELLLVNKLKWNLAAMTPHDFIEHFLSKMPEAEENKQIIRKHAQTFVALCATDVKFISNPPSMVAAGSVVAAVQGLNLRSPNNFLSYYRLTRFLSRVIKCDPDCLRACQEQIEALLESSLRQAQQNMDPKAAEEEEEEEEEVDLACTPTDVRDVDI
REPORTED METRIC: pIC50
# pIC50: negative log10 of molar concentration; output just the value

So what does the record say about pIC50 for Oc1ccc2ccc3[nH]c4c(-c5ccccc5)cccc4c3c2c1 ?
5.44

###

biological target: Cyclin-dependent kinase 4/cyclin D1 (Homo sapiens); assay: Inhibitory activity against Cyclin dependent kinase CDK4/D1; type: protein-complex assay
REPORTED METRIC: pIC50
In plain terms, pIC50 is the concentration in mol/L turned into minus its base-10 logarithm.

- MOL SMILES: "Oc1ccc(-c2cccc3c2[nH]c2ccc4ccc(O)cc4c23)cc1"
  QUANTITATIVE READOUT: 5.72
- MOL SMILES: "Oc1ccc2c(ccc3[nH]c4c(-c5ccccc5)cccc4c32)c1"
  QUANTITATIVE READOUT: 4.54
- MOL SMILES: "[O-][n+]1ccc2ccc3[nH]c4ccccc4c3c2c1"
  QUANTITATIVE READOUT: 3.22
- MOL SMILES: "c1ccc2c(c1)[nH]c1ccc3ccncc3c12"
  QUANTITATIVE READOUT: 3.80
- MOL SMILES: "Oc1ccc2ccc3[nH]c4ccc(-c5ccccc5)cc4c3c2c1"
  QUANTITATIVE READOUT: 4.43
- MOL SMILES: "[O-][n+]1ccc2c(ccc3[nH]c4ccccc4c32)c1"
  QUANTITATIVE READOUT: 4.23
- MOL SMILES: "Nc1cccc(-c2cccc3c2[nH]c2ccc4ccc(O)cc4c23)c1"
  QUANTITATIVE READOUT: 5.64
- MOL SMILES: "Oc1ccc2ccc3[nH]c4cccc(-c5ccccc5)c4c3c2c1"
  QUANTITATIVE READOUT: 4.08
- MOL SMILES: "Oc1ccc2ccc3[nH]c4ccccc4c3c2c1"
  QUANTITATIVE READOUT: 4.76
- MOL SMILES: "Oc1ccc2ccc3[nH]c4cc(-c5ccccc5)ccc4c3c2c1"
  QUANTITATIVE READOUT: 4.66

Record Oc1cccc2c1ccc1[nH]c3c(-c4ccccc4)cccc3c12 : what is its pIC50 with Cyclin-dependent kinase 4/cyclin D1 (Homo sapiens)?
5.24

Further, for c1ccc2c(c1)[nH]c1ccc3cnccc3c12 ?
4.52

###

molecular target: Cyclin-dependent kinase 1 (Homo sapiens) (UniProt P06493)
Sequence (P06493 whole entry, looked up): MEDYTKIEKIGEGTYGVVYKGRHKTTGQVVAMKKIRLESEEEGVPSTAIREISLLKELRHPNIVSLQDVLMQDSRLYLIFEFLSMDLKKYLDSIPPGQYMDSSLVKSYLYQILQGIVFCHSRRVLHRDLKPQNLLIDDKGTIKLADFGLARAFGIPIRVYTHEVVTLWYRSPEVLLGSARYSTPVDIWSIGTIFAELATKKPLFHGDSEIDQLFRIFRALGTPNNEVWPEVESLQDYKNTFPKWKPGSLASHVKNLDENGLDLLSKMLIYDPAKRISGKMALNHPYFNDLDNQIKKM
REPORTED METRIC: IC50 (µM)
Just the number in µM, nothing appended.

Field: IC50 (Cyclin-dependent kinase 1 (Homo sapiens) (UniProt P06493)). Entry: Nc1cccc(-c2cccc3c2[nH]c2ccc4ccc(O)cc4c23)c1
74.5

###

Catalogue of compounds with associated pIC50
target: Cyclin-dependent kinase 4/cyclin D1 (Homo sapiens, UniProt P11802); experiment: Inhibitory activity against Cyclin dependent kinase CDK4/D1; format: protein-complex assay
Please report pIC50 as the negative decimal logarithm of the molar concentration, giving only the number.

Recorded pIC50, per entry:
- MOL SMILES: "c1cnc2c(c1)ccc1[nH]c3ccccc3c12"
  pIC50: 3.35
- MOL SMILES: "c1ccc2c(c1)[nH]c1ccc3ncccc3c12"
  pIC50: 3.71

Any idea what pIC50 came out for Nc1ccc2ccc3[nH]c4c(-c5ccccc5)cccc4c3c2c1 on Cyclin-dependent kinase 4/cyclin D1 (Homo sapiens, UniProt P11802)?
4.56

Ok, now Oc1cccc2ccc3[nH]c4c(-c5ccccc5)cccc4c3c12
4.71

Param item: Oc1ccc2ccc3[nH]c4c(-c5ccc(Cl)cc5)cccc4c3c2c1
5.00

###

biological target: Cyclin-dependent kinase 2/cyclin E (Homo sapiens, UniProt P24941); assay: Inhibition of CDK2/cyclin E
REPORTED METRIC: pIC50
Note on units: pIC50 is unitless, being -log10 of a concentration expressed in mol/L.

Which pIC50 value is on record for Oc1ccc2ccc3[nH]c4c(-c5ccccc5)cccc4c3c2c1 ?
4.01
